The reported numbers originate from patent US20250026813A1.

biological target: SARS-CoV-2 spike protein receptor binding domain (isolated RBD) (SARS-CoV-2, UniProt P0DTC2 319-541)
QUANTITY_KIND: kon

• IMPI-054 (antibody, V domains shown) VH: EVQLVESGGGLIQPGGSLRLSCAASGLTVSSNYMSWVRQAPGKGLEWVSIIYSGGSTYYADSVKGRFTISRDNSKNTLYLQMNSLRAEDTAVYYCARLGGYYYYGMDVWGQGTTVTVSS VL: DIQMTQSPSSLSASVGERVTITCQASQDIRNYLNWYQKKPGKAPKLLIYDSSNLETGVPSRFSGSGSGTDFTFTISSLQPEDIATYYCQQYDNLPITFGQGTRLEIK = 564000 M⁻¹ s⁻¹
• IMPI-029 (antibody, V domains shown) VH: EVQLVESGGGLIQPGGSLRLSCAASGVTVSSNYMNWVRQAPGKGLEWVSVIYSGGSTYYADSVKGRFTISRDNSKNTLFLQMNSLRAEDSAVYYCARDLGPYGVDVWGQGTTVTVSS VL: DIQLTQSPSFLSASVGDRVTITCWASQGISSYLAWYQQKPGKAPKLLIYAASTLQSGVPSRFSGSGSGTEFTLTISSLQPEDFATYYCQELNSYPLTFGQGTRLEIK = 808000 M⁻¹ s⁻¹
• IMPI-005 (antibody, V domains shown) VH: EVQLVESGGGLIQPGGSLRLSCAASGFTVSSNYMNWVRQAPGKGLEWVSVIYSGGSTYYADSVKGRFTISRDNSKNTLFLQMNSLRAEDSAVYYCARDLGPYGVDVWGQGTTVTVSS VL: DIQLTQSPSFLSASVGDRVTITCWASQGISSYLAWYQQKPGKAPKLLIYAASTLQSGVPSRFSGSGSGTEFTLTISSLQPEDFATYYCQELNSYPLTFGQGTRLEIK = 2.3e+06 M⁻¹ s⁻¹
• IMPI-060 (antibody, V domains shown) VH: EVQLVESGGGLIQPGGSLRLSCAASGVTVSSNYMSWVRQAPGKGLEWVSVIYSGGSTFYADSVKGRFTISRDNSKNTLYLQMNSLRAEDTAVYYCARDLSYYGMDVWGQGTTVTVSS VL: DIQLTQSPSFLSASVGDRVTITCWASQGISSYLAWYQQKPGKAPKLLIYAASTLQSGVPSKFSGSGSGTEFTLTISSLQPEDFATYYCQQLNSYPSSFGQGTKLEIK = 469000 M⁻¹ s⁻¹
• IMPI-055 (antibody, V domains shown) VH: QVQLVQSGAEVKKPGASVKVSCKASGYTFTSYDINWVRQATGQGLEWMGWMNPNSGNTGYAQKFQGRVTMTRDTSINTAYMELSSLRSEDTAVYFCARGGRYCSDVTCYSGEPFDYWGQGTLVTVSS VL: EIMLTQSPDFQSVTPKEKVTITCRASQSIGSSLHWYQQKPDQSPKLLIKFASQSISGVPSRFSGSGSGTDFTLTINSLEAEDAAAYYCHQSSSLPHTFGPGTKVEIK = 2.75e+06 M⁻¹ s⁻¹
• IMPI-024 (antibody, V domains shown) VH: EVQLVQSGAEVKKPGESLKISCKGSGYSFTSYWIGWVRQMPGKGLEWMGIIYPGDSDTRYSPSFQGQVTISADKSISTAYLQWSSLKASDTAMYYCVRSYNWNYFDYWGQGTLVTVSS VL: AIQLTQSPSSLSASVGDRVTITCRASQGISSGLAWYQQKAGKAPKLLIYDVSSLESGVPSRFSGSGSGTDFTLTISSLQPEDFATYYCQQFLSYPWTFGQGTKVEIK = 2.12e+06 M⁻¹ s⁻¹
• IMPI-006 (antibody, V domains shown) VH: QLQLQESGPGLVKPSETLSLTCTVSGGSISNSNYYWGWIRQPPGKGLEWIGSIYYSGRTYYNPSLKSRVTISVDTSKNQFSLKLSSVTAADTAVYYCARMGLLWFGEFYGMDVWGQGTTVTVSS VL: DIQMTQSPSSLSASVGDRVTITCRASQGISSWLAWYQQKPEKAPKSLIYDASSLQRGVPSRFSGSGSGTDFTLTISSLQPEDFASYYCQQYNSYPLTFGGGTRVEIK = 9.3e+09 M⁻¹ s⁻¹
